Recorded IFN-γ, PBL + pulsed Cos7/A11 by entry
Target Entity: KRAS G12D 10-mer peptide … (SEQ ID NO: 2) presented by HLA-A11 on pulsed cells (human, UniProt A*11:01)
Experiment Summary: cell-based or functional assay
Please reply with the bare figure in pg/mL and do not write the unit itself.

Check the records and state IFN-γ, PBL + pulsed Cos7/A11 for TRAV3-3*01 + TRBV13-1*02 TCR chain pair (TCR, V domains shown) V domain 1: GEQVEQRPPHLSVREGDSAVITCTYTDPNSYYFFWYKQEPGASLQLLMKVFSSTEINEGQGFTVLLNKKDKRLSLNLTAAHPGDSAAYFCAVSGGTNSAGNKLTFGIGTRVLVRP V domain 2: EAAVTQSPRNKVTVTGGNVTLSCRQTNSHNYMYWYRQDTGHGLRLIHYSYGAGNLQIGDVPDGYKATRTTQEDFFLLLELASPSQTSLYFCASASWGGYAEQFFGPGTRLTVLE
49

Check the records and state IFN-γ, PBL + pulsed Cos7/A11 for TRAV19*01 + TRBV4*01 TCR chain pair (TCR, V domains shown) V domain 1: GQQVKQSSPSLTVQEGGILILNCDYENDMFDYFAWYKKYPDNSPTLLISVRSNVDKREDGRFTVFLNKSGKHFSLHITASQPEDTAVYLCAAGDSGGSNYKLTFGKGTLLTVTP V domain 2: ETAVFQTPNYHVTQVGNEVSFNCKQTLGHDTMYWYKQDSKKLLKIMFSYNNKQLIVNETVPRRFSPQSSDKAHLNLRIKSVEPEDSAVYLCASSRDWGPAEQFFGPGTRLTVLE
30

Check the records and state IFN-γ, PBL + pulsed Cos7/A11 for TRAV19*01/TRBV13-1*02 murine anti-KRAS G12V TCR (SEQ ID NOs: 145 and 146) (TCR, V domains shown) V domain 1: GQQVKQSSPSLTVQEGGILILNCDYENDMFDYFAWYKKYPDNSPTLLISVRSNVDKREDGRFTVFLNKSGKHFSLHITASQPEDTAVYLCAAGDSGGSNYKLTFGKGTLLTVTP V domain 2: EAAVTQSPRNKVTVTGGNVTLSCRQTNSHNYMYWYRQDTGHGLRLIHYSYGAGNLQIGDVPDGYKATRTTQEDFFLLLELASPSQTSLYFCASASWGGYAEQFFGPGTRLTVLE
94

Check the records and state IFN-γ, PBL + pulsed Cos7/A11 for TRAV3-3*01/TRBV4*01 murine anti-KRAS G12V TCR (SEQ ID NOs: 133 and 134) (TCR, V domains shown) V domain 1: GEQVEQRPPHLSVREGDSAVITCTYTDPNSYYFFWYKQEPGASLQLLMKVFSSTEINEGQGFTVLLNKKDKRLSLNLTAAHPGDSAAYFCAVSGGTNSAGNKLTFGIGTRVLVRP V domain 2: ETAVFQTPNYHVTQVGNEVSFNCKQTLGHDTMYWYKQDSKKLLKIMFSYNNKQLIVNETVPRRFSPQSSDKAHLNLRIKSVEPEDSAVYLCASSRDWGPAEQFFGPGTRLTVLE
39
